Tested Target: T1, sEGFR-MMB (dimeric sEGFR mimetibody) (human)
T1 construct: Disulfide linked homodimer, expressed in 293E cells; also called sEGFR-Fc
T1 sequence (chain, as listed by the source limits assumed): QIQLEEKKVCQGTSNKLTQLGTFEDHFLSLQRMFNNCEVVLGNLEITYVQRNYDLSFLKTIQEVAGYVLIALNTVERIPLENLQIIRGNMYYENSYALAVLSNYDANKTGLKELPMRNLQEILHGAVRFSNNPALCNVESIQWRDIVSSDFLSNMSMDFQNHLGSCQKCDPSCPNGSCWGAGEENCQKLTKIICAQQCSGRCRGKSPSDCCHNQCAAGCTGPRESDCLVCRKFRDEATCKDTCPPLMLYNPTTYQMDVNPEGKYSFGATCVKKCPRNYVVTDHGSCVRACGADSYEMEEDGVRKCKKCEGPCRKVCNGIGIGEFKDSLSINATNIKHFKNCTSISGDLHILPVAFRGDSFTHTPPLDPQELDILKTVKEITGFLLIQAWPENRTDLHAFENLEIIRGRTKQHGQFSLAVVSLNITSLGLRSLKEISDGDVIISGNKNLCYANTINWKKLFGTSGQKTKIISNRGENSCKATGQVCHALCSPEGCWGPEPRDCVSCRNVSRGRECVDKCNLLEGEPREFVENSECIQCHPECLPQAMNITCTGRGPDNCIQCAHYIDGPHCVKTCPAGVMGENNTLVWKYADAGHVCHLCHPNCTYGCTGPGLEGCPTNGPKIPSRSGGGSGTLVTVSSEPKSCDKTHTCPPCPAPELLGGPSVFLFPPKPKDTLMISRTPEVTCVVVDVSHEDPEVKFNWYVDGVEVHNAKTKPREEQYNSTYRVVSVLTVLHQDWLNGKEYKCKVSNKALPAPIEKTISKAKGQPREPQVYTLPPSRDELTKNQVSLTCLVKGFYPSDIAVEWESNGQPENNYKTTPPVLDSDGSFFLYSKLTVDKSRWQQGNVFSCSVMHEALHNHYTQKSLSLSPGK
Method Notes: phage ELISA on coated sEGFR-MMB, chemiluminescence (background typically <200 units)
This listing pairs binders with measured log10(ELISA signal).
Quantity Kind: log10(ELISA signal) (log10 of the value in units)

Binder	Quantity Kind	Quantitative Readout
GGGKHCILFEKTVYCAKGGGSGGSGG (pIX phagemid display; not shown: M13 phage coat protein pIX (MSVL...)) [SEQ ID NO: 26 (S18 hit, pIX phage)]	log10(ELISA signal)	3.96
GGGDSCIQFANLLYCAIGGGSGGSGG (pIX phagemid display; not shown: M13 phage coat protein pIX (MSVL...)) [SEQ ID NO: 27 (S18 hit, pIX phage)]	log10(ELISA signal)	4.73
GGGTDCVIFGLETYCLRGGGSGGSGG (pIX phagemid display; also called PP173; not shown: M13 phage coat protein pIX (MSVL...)) [P173 phage (S18, pIX)]	log10(ELISA signal)	4.58
GGGAKCIAFGNSVYCLNGGGSGGSGG (pIX phagemid display; not shown: M13 phage coat protein pIX (MSVL...)) [SEQ ID NO: 24 (S18 hit, pIX phage)]	log10(ELISA signal)	4.50
GGGAGCIAFVDVVYCARGGGSGGSGG (pIX phagemid display; not shown: M13 phage coat protein pIX (MSVL...)) [SEQ ID NO: 23 (S18 hit, pIX phage)]	log10(ELISA signal)	3.80
GGGSDCVLFGSKLFCSAGGGSGGSGG (pIX phagemid display; not shown: M13 phage coat protein pIX (MSVL...)) [SEQ ID NO: 32 (S18 hit, pIX phage)]	log10(ELISA signal)	4.55
GGGYDCVSFGAVAYCPQGGGSGGSGG (pIX phagemid display; not shown: M13 phage coat protein pIX (MSVL...)) [SEQ ID NO: 34 (S18 hit, pIX phage)]	log10(ELISA signal)	3.51
GGGTDCIRFGVLWYCLVGGGSGGSGG (pIX phagemid display; not shown: M13 phage coat protein pIX (MSVL...)) [SEQ ID NO: 28 (S18 hit, pIX phage)]	log10(ELISA signal)	3.68
GGGRDCIIFDKTVYCVIGGGSGGSGG (pIX phagemid display; not shown: M13 phage coat protein pIX (MSVL...)) [SEQ ID NO: 25 (S18 hit, pIX phage)]	log10(ELISA signal)	4.23
GGGTDCVRFGETIYCIVGGGSGGSGG (pIX phagemid display; not shown: M13 phage coat protein pIX (MSVL...)) [SEQ ID NO: 33 (S18 hit, pIX phage)]	log10(ELISA signal)	4.12
GGGRGCVVFGDNIYCIVGGGSGGSGG (pIX phagemid display; not shown: M13 phage coat protein pIX (MSVL...)) [SEQ ID NO: 35 (S18 hit, pIX phage)]	log10(ELISA signal)	4.34
GGGAYCSFVAGDLVCQVGGGSGGSGG (pIX phagemid display; not shown: M13 phage coat protein pIX (MSVL...)) [SEQ ID NO: 30 (S18 hit, pIX phage)]	log10(ELISA signal)	4.30
GGGRACITFGKVVYCEVGGGSGGSGG (pIX phagemid display; not shown: M13 phage coat protein pIX (MSVL...)) [SEQ ID NO: 29 (S18 hit, pIX phage)]	log10(ELISA signal)	4.49

Reference source: patent US20100098681A1
